Reference source: patent US11976083B2

Form field: IC50 (one value per entry).
molecular target: human PAD4 (Homo sapiens); construct: human PAD4 (NM_012387), A2-P663, was PCR amplified; His-SUMO (N, cleaved yes); experiment: In vitro PAD4 BAEE biochemical assay; details: BAEE substrate 3 mM, 5 nM PAD4, 2 mM calcium chloride; geometric mean of multiple experiments
Readout Name: IC50

Cc1cc2c(cc1C(=O)N[C@H]1CNCC[C@@H]1F)nc(-c1cc3ccc4nc3n1CC(F)(F)/C=C/C[C@H]1C[C@@H]1C(=O)N[C@@H]4C)n2C; 60 nM
COc1cc(C(=O)N2CCC[C@@H](N)[C@H]2C(F)F)cc2nc(-c3cc4ccc5nc4n3CCCCCCC(C)(C)C(=O)N[C@@H]5C)n(C)c12; 76 nM
COc1cc(C(=O)N2[C@H]3CC[C@@H]2[C@H](N)C3)cc2nc(-c3cc4ccc5nc4n3C[C@H]3C[C@H]3COCCC(=O)N[C@@H]5C)c(C)n12 (single isomer, unassigned); 12 nM
COc1cc(C(=O)N2C[C@H](N)[C@@H]3CC[C@H]2C3)cc2nc(-c3cc4ccc5nc4n3CCCCCc3ccc(F)c(F)c3C(=O)N[C@@H]5C)n(C)c12; 40 nM
COc1cc(C(=O)N2CCC[C@@H](N)C2)cc2nc(-c3cc4ccc5nc4n3CCCCCC[C@](C)(C(F)(F)F)C(=O)N[C@@H]5C)n(C)c12; 69 nM
COc1ccc2c(n1)CCCCCn1c(-c3nc4cc(C(=O)N5C[C@H](N)[C@@H]6CC[C@H]5C6)cc(F)c4n3C3CC3)cc3ccc(nc31)[C@@H](C)NC2=O; 13 nM

---

target: human PAD4 (Homo sapiens, UniProt Q9UM07); construct: human PAD4 (NM_012387), A2-P663, was PCR amplified; His-SUMO (N, cleaved yes); experiment: In vitro PAD4 BAEE biochemical assay; conditions: BAEE substrate 3 mM, 5 nM PAD4, 2 mM calcium chloride; geometric mean of multiple experiments
Sequence (Q9UM07 2-663): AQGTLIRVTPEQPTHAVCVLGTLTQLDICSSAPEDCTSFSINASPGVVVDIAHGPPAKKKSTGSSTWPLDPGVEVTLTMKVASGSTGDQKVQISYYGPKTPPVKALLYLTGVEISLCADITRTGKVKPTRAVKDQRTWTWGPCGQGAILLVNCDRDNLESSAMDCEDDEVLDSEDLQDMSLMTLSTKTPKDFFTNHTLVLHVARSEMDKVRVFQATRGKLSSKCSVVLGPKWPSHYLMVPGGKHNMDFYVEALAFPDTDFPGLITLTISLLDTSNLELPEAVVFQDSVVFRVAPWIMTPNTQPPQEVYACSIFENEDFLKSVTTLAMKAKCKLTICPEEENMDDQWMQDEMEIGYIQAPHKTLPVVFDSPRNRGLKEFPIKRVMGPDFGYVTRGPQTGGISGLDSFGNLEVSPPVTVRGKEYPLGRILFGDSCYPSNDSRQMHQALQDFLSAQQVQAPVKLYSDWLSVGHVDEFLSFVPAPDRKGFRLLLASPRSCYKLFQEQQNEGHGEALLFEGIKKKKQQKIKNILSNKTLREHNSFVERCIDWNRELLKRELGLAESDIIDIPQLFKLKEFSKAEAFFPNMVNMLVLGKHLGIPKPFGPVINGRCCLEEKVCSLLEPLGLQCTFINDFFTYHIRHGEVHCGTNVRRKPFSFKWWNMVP
Kindly apply the following: MET if IC50 is less than 100 nM, NOT MET in every other case.

COc1cc(C(=O)N2CC[C@@H](OC)[C@@H](N)C2)cc2nc(-c3cc4ccc5nc4n3C[C@H]3C[C@H]3CCCC(C)(C)C(=O)N[C@@H]5C)n(C)c12; NOT MET
COc1cc(C(=O)N2C[C@H](N)[C@@H]3CC[C@H]2C3)cc2nc(-c3cc4ccc5nc4n3CC(F)(F)CCCC[C@](C)(C(F)(F)F)C(=O)N[C@@H]5C)n(C)c12; NOT MET
CCO[C@@H]1CCN(C(=O)c2cc(OC)c3c(c2)nc(-c2cc4ccc5nc4n2CCCCCCC(C)(C)C(=O)N[C@@H]5C)n3C)C[C@@H]1N; NOT MET
COc1cc(C(=O)N2CC[C@@H](OC)[C@@H](N)C2)cc2nc(-c3cc4ccc5nc4n3CCCC(F)(F)C[C@H]3C[C@@H]3C(=O)N[C@@H]5C)n(C)c12; NOT MET
C[C@H]1NC(=O)c2nccnc2CCCC(F)(F)Cn2c(-c3nc4cc(C(=O)N5C[C@H](N)[C@@H]6CC[C@H]5C6)cc(F)c4n3C3CC3)cc3ccc1nc32; MET
COc1ccnc2c1C(=O)N[C@H](C)c1ccc3cc(-c4nc5cc(C(=O)N6CC[C@@H](OC)[C@@H](N)C6)cc(OC)c5n4C)n(c3n1)CCCCC2; NOT MET
COc1cc(C(=O)N2C[C@H](N)[C@@H]3CC[C@H]2C3)cc2nc(-c3cc4ccc5nc4n3CCCCCc3cc(C(F)(F)F)ncc3C(=O)N[C@@H]5C)n(C3CC3)c12; MET
CO[C@@H]1CCN(C(=O)c2cc3c4c(c2)nc(-c2cc5ccc6nc5n2CCCCC[C@@H]2C[C@H]2C(=O)N[C@@H]6C)n4CCO3)C[C@@H]1N; NOT MET
COc1cc(C(=O)N2C[C@H](N)[C@@H]3CC[C@H]2C3)cc2nc(-c3cc4ccc5nc4n3CCCCCC[C@](F)(c3cccc(Cl)n3)C(=O)N[C@@H]5C)n(C)c12; MET
COc1cc(C(=O)N2[C@H]3CC[C@@H]2[C@H](N)C3)cc2nc(-c3cc4ccc5nc4n3C[C@@H]3CC[C@@H]3COCCC(=O)N[C@@H]5C)c(C)n12; MET
COc1cc(C(=O)N2CC[C@@H](OC(F)F)[C@@H](N)C2)cc2nc(-c3cc4ccc5nc4n3CCCCCC[C@@H](OC)C(=O)N[C@@H]5C)n(C)c12; NOT MET
